molecular target: HIV-1 AC10 Env (HIV-1); experiment: cell-based or functional assay
assay_endpoint: IC50, TZM-bl pseudovirus neutralization

What does the record list as IC50, TZM-bl pseudovirus neutralization for 1469_M23 (PG16) (TCN-118) (antibody, V domains shown) VH: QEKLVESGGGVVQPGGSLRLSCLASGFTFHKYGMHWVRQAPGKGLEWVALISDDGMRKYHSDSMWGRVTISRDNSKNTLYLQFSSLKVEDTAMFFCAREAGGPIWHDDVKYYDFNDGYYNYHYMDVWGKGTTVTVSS VL: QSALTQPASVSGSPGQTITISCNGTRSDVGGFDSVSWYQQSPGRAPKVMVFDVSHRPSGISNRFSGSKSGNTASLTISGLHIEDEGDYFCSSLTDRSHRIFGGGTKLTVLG ?
< 0.01 µg/mL
